- Run Conditions: human, in vivo, 100 mg/m2
Observed Property: Cmax

Form field: reported Cmax of N.N.[Cl][Pt][Cl] [cisplatin, cis-Diammineplatinum(II) dichrolide]
9.5 to 11 µM
